Biological target: TRPV4 channel receptor (Bos taurus, UniProt A0A8F4X677)
Construct: endogenous in cells; host or cells: bovine articular chondrocytes
Sequence (A0A8F4X677 1-871): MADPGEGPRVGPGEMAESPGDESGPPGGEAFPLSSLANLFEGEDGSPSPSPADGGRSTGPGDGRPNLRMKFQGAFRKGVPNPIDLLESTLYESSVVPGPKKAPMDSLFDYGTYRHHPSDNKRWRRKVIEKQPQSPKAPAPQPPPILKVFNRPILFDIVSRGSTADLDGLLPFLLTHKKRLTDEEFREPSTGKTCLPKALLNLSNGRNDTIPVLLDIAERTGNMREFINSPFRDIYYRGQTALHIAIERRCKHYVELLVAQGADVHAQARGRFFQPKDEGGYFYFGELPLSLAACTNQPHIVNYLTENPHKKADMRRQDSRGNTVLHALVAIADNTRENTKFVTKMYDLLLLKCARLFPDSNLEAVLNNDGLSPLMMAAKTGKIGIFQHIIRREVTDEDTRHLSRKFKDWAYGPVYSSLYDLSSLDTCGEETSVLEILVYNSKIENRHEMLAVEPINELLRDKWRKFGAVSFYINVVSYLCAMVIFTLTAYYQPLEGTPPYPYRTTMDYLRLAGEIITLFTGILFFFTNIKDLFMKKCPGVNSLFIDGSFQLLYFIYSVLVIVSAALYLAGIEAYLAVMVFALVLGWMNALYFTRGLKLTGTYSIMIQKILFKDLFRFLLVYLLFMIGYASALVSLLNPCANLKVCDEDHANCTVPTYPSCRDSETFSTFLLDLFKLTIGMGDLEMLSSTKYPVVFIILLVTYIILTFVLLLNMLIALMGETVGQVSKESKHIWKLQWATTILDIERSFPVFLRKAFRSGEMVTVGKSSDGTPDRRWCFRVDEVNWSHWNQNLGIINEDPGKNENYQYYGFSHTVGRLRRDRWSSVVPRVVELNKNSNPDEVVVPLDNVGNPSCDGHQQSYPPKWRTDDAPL
Experiment: Ca2+ influx in bovine articular chondrocytes (FlexStation)
Format: cell-based
Conditions: bovine chondrocytes; read-out: Ca Influx - FLEX (bovine) EC50
assay_readout: EC50 (nM)

P: CC(C)C[C@H](NC(=O)c1cc2ccccc2s1)C(=O)N[C@@H]1CCCN(S(=O)(=O)c2ccccc2C#N)CC1=O
Q: CC(C)C[C@H](NC(=O)c1cc2ccccc2s1)C(=O)NCCCN(C)S(=O)(=O)c1ccccc1C#N
Kindly identify the item with the lower EC50 figure among these two: P and Q In your reply, give the label of the chosen option.
P
(P: 120 nM, Q: 290 nM)

Reference source: patent US20070259856A1
